# run_parameters: human, 4 h, 10 ng/mL
Task for the reader: assign each of the following compounds its reported % from t0.
State just the number; it will be interpreted in %.

Give a short answer stating reported % from t0 for `O=C(C1CCCCC1)N1CCN(c2nc(=O)c3cc(C(F)(F)F)cc([N+](=O)[O-])c3s2)CC1` .
-1

Give a short answer stating reported % from t0 for O=c1nc(N2CCN(CC3CCCCC3O)CC2)sc2c([N+](=O)[O-])cc(C(F)(F)F)cc12 (stereo not drawn) .
-3

Give a short answer stating reported % from t0 for `O=c1nc(N2CCN(CC3CCCCC3)CC2)sc2c([N+](=O)[O-])cc(C(F)(F)F)cc12` .
-1

Give a short answer stating reported % from t0 for O=C1CCCC(CN2CCN(c3nc(=O)c4cc(C(F)(F)F)cc([N+](=O)[O-])c4s3)CC2)C1 (stereo not drawn) .
-9

Give a short answer stating reported % from t0 for O=c1nc(N2CCN(CC3CCCC(O)C3)CC2)sc2c([N+](=O)[O-])cc(C(F)(F)F)cc12 (stereo not drawn) .
4

Give a short answer stating reported % from t0 for `O=c1nc(N2CCN(CC3(O)CCCCC3)CC2)sc2c([N+](=O)[O-])cc(C(F)(F)F)cc12` .
-1

Recorded values, source paper PMC6544242.
